Biological target: human type X sPLA2 (Homo sapiens, UniProt O15496)
Construct: unpurified culture supernatant used
Sequence (O15496 43-165): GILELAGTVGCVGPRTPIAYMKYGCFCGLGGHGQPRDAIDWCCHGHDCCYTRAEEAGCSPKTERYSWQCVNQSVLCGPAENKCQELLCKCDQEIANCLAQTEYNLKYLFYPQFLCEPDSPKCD
Test: Inhibition test of human secretory phospholipase A2, chromogenic assay, Type X enzyme
Details: human type X enzyme (CHO supernatant) 15 μl/well, absorbance change 30 min, OD 405 nm
Consider the following compounds; for each one, report its IC50.
Numbers only, in nM.

Here's what some known entries look like.
{"Compound": "Cc1cn2c(Cc3ccccc3)c3c(c2c(OCC(=O)O)n1)C(C(N)=O)=CCC3", "Unit string": "nM", "Experimental value": 6}
{"Compound": "Cc1cc(OCC(=O)O)c2c3c(c(Cc4ccc(Cl)cc4)n2n1)CCC=C3C(N)=O", "Unit string": "nM", "Experimental value": 6}

Below: the item to evaluate.
Problem: Which IC50 is listed for Cc1cc(OC(C)C(=O)O)c2c3c(c(Cc4ccc(Cl)cc4)n2n1)CCC=C3C(N)=O (stereo not drawn) ?
Result: 5

The origin of these recorded values is patent US6756376B1.
